For each entry below, report its shrunken log2 fold change value.
Tested on: Escherichia coli TOP10
Test: shrunken log2 fold change of peptide-encoding DNA abundance (4.5 h post-induction vs induction); higher = less antimicrobial activity (less host growth inhibition)
Details: time post-induction: 4.5 h; library: site-saturation at positions 5, 18, 19, 20
Kindly provide the number alone.

## Input Give measured shrunken log2 fold change for `RRIRQRPPRLPRPRPRPEECPRP` (Escherichia coli TOP10).
## Output -0.0135

## Input Write down the reported shrunken log2 fold change (system: Escherichia coli TOP10) of `RRIRHRPPRLPRPRPRPEPSPRP`
## Output 0.137

## Input Write down measured shrunken log2 fold change (Escherichia coli TOP10) for this sequence. `RRIRIRPPRLPRPRPRPADFPRP`
## Output -0.162

## Input Specify shrunken log2 fold change for `RRIRMRPPRLPRPRPRPSVKPRP` , system Escherichia coli TOP10.
## Output 0.185

## Input Please tell me the measured shrunken log2 fold change for `RRIRRRPPRLPRPRPRPAQPPRP` ; system: Escherichia coli TOP10.
## Output 0.958

## Input Send back Escherichia coli TOP10 shrunken log2 fold change of `RRIRWRPPRLPRPRPRPSDAPRP` only.
## Output 0.191

## Input # return shrunken log2 fold change for `RRIRRRPPRLPRPRPRPMIGPRP` , test system: Escherichia coli TOP10
## Output -0.041

## Input Specify shrunken log2 fold change for `RRIRGRPPRLPRPRPRPRICPRP` , system Escherichia coli TOP10.
## Output 0.335

## Input Quote shrunken log2 fold change with test system Escherichia coli TOP10 for `RRIRRRPPRLPRPRPRPELTPRP`
## Output -0.0257

## Input // fetch shrunken log2 fold change; item: `RRIRNRPPRLPRPRPRPIIDPRP` ; system: Escherichia coli TOP10
## Output -0.361

## Input Write down the reported shrunken log2 fold change (system: Escherichia coli TOP10) of `RRIRVRPPRLPRPRPRPPKAPRP`
## Output 0.077

## Input Recall the reported shrunken log2 fold change of `RRIRQRPPRLPRPRPRPWFYPRP` when tested on Escherichia coli TOP10.
## Output -0.373

## Input Look up and report shrunken log2 fold change, with Escherichia coli TOP10 as system, for `RRIRCRPPRLPRPRPRPYHLPRP`
## Output -0.0832

## Input Provide shrunken log2 fold change, tested on Escherichia coli TOP10, for `RRIRDRPPRLPRPRPRPHCQPRP` .
## Output -0.146

## Input System Escherichia coli TOP10. Read-out shrunken log2 fold change. Item `RRIRWRPPRLPRPRPRPCQYPRP` . Report value.
## Output 0.0863

## Input Given `RRIRHRPPRLPRPRPRPRYQPRP` , report its shrunken log2 fold change on Escherichia coli TOP10.
## Output -1.18

## Input Would you please give the reported shrunken log2 fold change of `RRIRIRPPRLPRPRPRPQRHPRP` with Escherichia coli TOP10?
## Output -0.401

## Input Consider the sequence `RRIRFRPPRLPRPRPRPMKSPRP` tested on Escherichia coli TOP10; state its shrunken log2 fold change.
## Output -0.198

## Input Tell me its shrunken log2 fold change on Escherichia coli TOP10: `RRIRDRPPRLPRPRPRPKWYPRP`
## Output -0.0377

## Input Consider the sequence `RRIRWRPPRLPRPRPRPKLAPRP` tested on Escherichia coli TOP10; state its shrunken log2 fold change.
## Output 1.03

## Input Provide measured shrunken log2 fold change on Escherichia coli TOP10 for `RRIRARPPRLPRPRPRPYKSPRP` please.
## Output -0.441

## Input Answer with shrunken log2 fold change of `RRIRERPPRLPRPRPRPTFPPRP` measured for Escherichia coli TOP10.
## Output -0.44

## Input Under Escherichia coli TOP10, report shrunken log2 fold change for `RRIRCRPPRLPRPRPRPAQIPRP`
## Output 0.00931

## Input # lookup: Escherichia coli TOP10 shrunken log2 fold change, key = `RRIRFRPPRLPRPRPRPMVWPRP`
## Output 0.156

## Input Enter recorded shrunken log2 fold change with Escherichia coli TOP10 for `RRIRARPPRLPRPRPRPDLWPRP` here.
## Output 1.51

## Input Report the value of shrunken log2 fold change obtained on Escherichia coli TOP10 for `RRIRIRPPRLPRPRPRPARFPRP` .
## Output -0.0256

## Input Fetch value of shrunken log2 fold change on Escherichia coli TOP10 for `RRIRARPPRLPRPRPRPRDRPRP` .
## Output 0.706

## Input Lab note: Escherichia coli TOP10 assay, enter shrunken log2 fold change for `RRIRMRPPRLPRPRPRPICIPRP` here
## Output 0.0141

## Input Report shrunken log2 fold change from Escherichia coli TOP10 testing of `RRIRMRPPRLPRPRPRPGGVPRP`
## Output 0.952

## Input Provide shrunken log2 fold change, tested on Escherichia coli TOP10, for `RRIRLRPPRLPRPRPRPWTFPRP` .
## Output -0.0155

## Input # return shrunken log2 fold change for `RRIRERPPRLPRPRPRPRMPPRP` , test system: Escherichia coli TOP10
## Output -0.0437

## Input State measured shrunken log2 fold change of the sequence `RRIRQRPPRLPRPRPRPAWKPRP` with Escherichia coli TOP10.
## Output 0.0232

## Input Write down measured shrunken log2 fold change (Escherichia coli TOP10) for this sequence. `RRIRSRPPRLPRPRPRPFTRPRP`
## Output 0.0337

## Input With Escherichia coli TOP10 as the test system, provide measured shrunken log2 fold change for this sequence: `RRIRYRPPRLPRPRPRPIWVPRP`
## Output -0.0696

## Input Report shrunken log2 fold change on Escherichia coli TOP10 for this entry: `RRIRDRPPRLPRPRPRPCEDPRP`
## Output -0.0105

## Input // fetch shrunken log2 fold change; item: `RRIRPRPPRLPRPRPRPVKKPRP` ; system: Escherichia coli TOP10
## Output -0.016

## Input Consider the sequence `RRIRNRPPRLPRPRPRPHAVPRP` tested on Escherichia coli TOP10; state its shrunken log2 fold change.
## Output 0.00516

## Input Enter measured shrunken log2 fold change, system Escherichia coli TOP10, for the sequence shown: `RRIRCRPPRLPRPRPRPRYIPRP`
## Output -0.035

## Input # return shrunken log2 fold change of `RRIRQRPPRLPRPRPRPWNNPRP` (system: Escherichia coli TOP10)
## Output 0.079

## Input Fill: shrunken log2 fold change (Escherichia coli TOP10) for this sequence `RRIRIRPPRLPRPRPRPWLQPRP`
## Output 0.0391

## Input Write down the reported shrunken log2 fold change (system: Escherichia coli TOP10) of `RRIRKRPPRLPRPRPRPIWNPRP`
## Output -0.0253

## Input Write down measured shrunken log2 fold change (Escherichia coli TOP10) for this sequence. `RRIRMRPPRLPRPRPRPLSEPRP`
## Output 0.511

## Input Identify measured shrunken log2 fold change obtained with Escherichia coli TOP10 for `RRIRRRPPRLPRPRPRPKANPRP` .
## Output 0.264

## Input Write shrunken log2 fold change of `RRIRDRPPRLPRPRPRPDELPRP` ; system used: Escherichia coli TOP10
## Output 0.414

## Input # return shrunken log2 fold change for `RRIRPRPPRLPRPRPRPIFEPRP` , test system: Escherichia coli TOP10
## Output 0.154

## Input System Escherichia coli TOP10. Read-out shrunken log2 fold change. Item `RRIRYRPPRLPRPRPRPYTRPRP` . Report value.
## Output -1.51

## Input Find the measured shrunken log2 fold change of `RRIRNRPPRLPRPRPRPIRFPRP` with Escherichia coli TOP10 as test system.
## Output -0.0225

## Input Using Escherichia coli TOP10 as the test system, report measured shrunken log2 fold change of `RRIRWRPPRLPRPRPRPIICPRP` .
## Output -0.523

## Input GET shrunken log2 fold change | system: Escherichia coli TOP10 | item: `RRIRTRPPRLPRPRPRPCGRPRP`
## Output 0.155

## Input Please report the measured shrunken log2 fold change for `RRIRQRPPRLPRPRPRPIQKPRP` tested on Escherichia coli TOP10.
## Output -0.0187

## Input Look up Escherichia coli TOP10 data: shrunken log2 fold change of `RRIRMRPPRLPRPRPRPIKAPRP` , then report it.
## Output 0.0335

## Input Jot down shrunken log2 fold change (Escherichia coli TOP10) of `RRIRLRPPRLPRPRPRPNCKPRP` .
## Output -0.143

## Input Lab note: record shrunken log2 fold change of `RRIRGRPPRLPRPRPRPYINPRP` tested on Escherichia coli TOP10.
## Output -0.151

## Input Write shrunken log2 fold change of `RRIRGRPPRLPRPRPRPPDQPRP` ; system used: Escherichia coli TOP10;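 note: peptides expressed intracellularly from a pBAD plasmid library in pooled LB shake-flask culture, induced with 0.3% L-arabinose, DNA abundance read by NGS, three biological replicates, DESeq2 with apeglm shrinkage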
## Output 1.14
